Assay: Mouse PK after intravenous application
Format: in vivo
Conditions: plasma, mean residence time, intravenous 30-60 nmol/kg, male NMRI mice
Starred links: 1 amine or outer side, 2 acyl side, 3 side chain; linkers in the order of their positions; H or OH if unused. Non-standard residues stand in square brackets, D forms with d. Groups on a side chain read outwards from the residue. No end group written: not given here. *: point of attachment. C20 diacid = O=C(O)CCCCCCCCCCCCCCCCCCC(=O)*; C18 diacid = O=C(O)CCCCCCCCCCCCCCCCC(=O)*; γGlu = O=C(O)[C@H](CCC(=O)[*:2])N[*:1]; εLys = N[C@@H](CCCCN[*:1])C(=O)[*:2]; AEEA = NCCOCCOCC(=O)O; Aib = CC(C)(N)C(=O)O; Ahx = NCCCCCC(=O)O
attributeMeasured: MRT (h)
Respond with the bare value in h.

INSERT INTO assay_data (substance, number) VALUES
  ('H-Y[Aib]EGTFTSDYSI[Aib]LEKQAQ[Aib]AFVQWLIK([Ahx-γGlu-γGlu-γGlu-γGlu-γGlu-γGlu-C18 diacid])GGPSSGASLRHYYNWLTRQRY-NH2 [Compound 139]', 10),
  ('Y[Aib]EGTFTSDYSI[Aib]LEKQAQ[Aib]AFVQWLIK([εLys-γGlu-γGlu-γGlu-γGlu-γGlu-γGlu-γGlu-C20 diacid])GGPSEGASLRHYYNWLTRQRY-NH2 [Compound 224]', 10.2),
  ('Y[Aib]EGTFTSDYSI[Aib]LEKQAQ[Aib]AFVQWLIK([γGlu-γGlu-γGlu-γGlu-γGlu-γGlu-C20 diacid])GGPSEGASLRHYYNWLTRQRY-NH2 [Compound 223]', 8.8);

Shifting focus to the substance that follows.
// lookup MRT for Y[Aib]EGTFTSDYSI[Aib]LEKQAQ[Aib]EFVEWLIK([AEEA-AEEA-γGlu-γGlu-γGlu-C18 diacid])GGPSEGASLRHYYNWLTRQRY-NH2 [Compound 284] 6.8
